# Assay Overview: rat fertility study
# Format: in vivo
# Experimental Conditions: rat, in vivo
Property Measured: NOAEL (mg/kg/day)

- Given Smiles: "COc1cc2c(cc1OC)[C@H]1C[C@@H](OC(=O)[C@@H](N)C(C)C)[C@H](CC(C)C)CN1CC2"
  Property Measured: "NOAEL"
  Recorded Result: 3

====

# Assay Overview: embryo/fetal development study, rats
# Format: in vivo, rat
# Experimental Conditions: rat, in vivo
Property Measured: NOAEL

- Given Smiles: "COc1cc2c(cc1OC)[C@H]1C[C@@H](OC(=O)[C@@H](N)C(C)C)[C@H](CC(C)C)CN1CC2"
  Property Measured: "NOAEL"
  Recorded Result: "15 mg/kg/day"
